- Organism: Rattus norvegicus
- ASSAY_EXPLANATION: Open TG-GATES - Regimen: Single
- Format: toxicity, organism-based, Sprague-Dawley
- Design: regimen Single, gender Male, age 6 weeks
- CONDITION_SET: in vivo, po, 100 mg/kg, 3 h, tissue Plasma, route gavage, dose level Low
REPORTED_METRIC: CRE (mg/dL)

>>> recorded_number("NC(N)=Nc1nc(CSCCC(N)=NS(N)(=O)=O)cs1")
0.4
>>> recorded_number("CCOC(=O)CCC(=O)O[C@H]1[C@H](O[C@@H]2[C@@H](C)[C@H](O[C@H]3C[C@@](C)(OC)[C@@H](O)[C@H](C)O3)[C@@H](C)C(=O)O[C@H](CC)[C@@](C)(O)[C@H](O)[C@@H](C)C(=O)[C@H](C)C[C@@]2(C)O)O[C@H](C)C[C@@H]1N(C)C [ERYTHROMYCIN ETHYLSUCCINATE]")
0.1
>>> recorded_number("COc1ccc2[nH]c([S+]([O-])Cc3ncc(C)c(OC)c3C)nc2c1 (centres undefined)")
0.4
>>> recorded_number("COC1=CC(=O)C[C@@H](C)[C@]12Oc1c(Cl)c(OC)cc(OC)c1C2=O")
0.3

* * *

Attribute: Bas
- Species: Rattus norvegicus
- ASSAY_EXPLANATION: Open TG-GATES - Regimen: Daily Repeat
- Type: toxicity, organism-based, Sprague-Dawley
- Design: regimen Daily Repeat, gender Male, age 6 weeks
- CONDITION_SET: in vivo, po, 0 mg/kg, 72 h, tissue Blood, route gavage, dose level Control, time 3 day
REPORTED_METRIC: Bas

>>> result("CCCNC(=O)NS(=O)(=O)c1ccc(Cl)cc1 [CHLORPROPAMIDE]")
"0.2%"
>>> result("CN1C(=O)CN=C(c2ccccc2)c2cc(Cl)ccc21 [DIAZEPAM]")
"0%"
>>> result("NC(N)=Nc1nc(CSCCC(N)=NS(N)(=O)=O)cs1 [FAMOTIDINE]")
"0%"
>>> result("COC1=CC(=O)C[C@@H](C)[C@]12Oc1c(Cl)c(OC)cc(OC)c1C2=O [GRISEOFULVIN]")
"0%"
>>> result("CCOC(=O)CCC(=O)O[C@H]1[C@H](O[C@@H]2[C@@H](C)[C@H](O[C@H]3C[C@@](C)(OC)[C@@H](O)[C@H](C)O3)[C@@H](C)C(=O)O[C@H](CC)[C@@](C)(O)[C@H](O)[C@@H](C)C(=O)[C@H](C)C[C@@]2(C)O)O[C@H](C)C[C@@H]1N(C)C [ERYTHROMYCIN ETHYLSUCCINATE]")
"0%"
>>> result("COc1ccc2[nH]c([S+]([O-])Cc3ncc(C)c(OC)c3C)nc2c1 (configuration not stated) [OMEPRAZOLE]")
"0%"
>>> result("NNC(=O)c1ccncc1 [ISONIAZID]")
"0.2%"

* * *

Attribute: Lym
- Organism: Rattus norvegicus
- ASSAY_EXPLANATION: Open TG-GATES - Regimen: Daily Repeat
- Assay type: toxicity, organism-based, Sprague-Dawley
- Parameters: regimen Daily Repeat, gender Male, age 6 weeks
- CONDITION_SET: in vivo, po, 300 mg/kg, 72 h, tissue Blood, route gavage, dose level Middle, time 3 day
REPORTED_METRIC: Lym (%)

>>> recorded_number("COc1ccc2[nH]c([S+]([O-])Cc3ncc(C)c(OC)c3C)nc2c1 (stereo not given) [OMEPRAZOLE]")
81
>>> recorded_number("CCOc1ccc(NC(=O)CC(C)O)cc1 (stereo not given) [BUCETIN]")
72.8
>>> recorded_number("CCOC(=O)CCC(=O)O[C@H]1[C@H](O[C@@H]2[C@@H](C)[C@H](O[C@H]3C[C@@](C)(OC)[C@@H](O)[C@H](C)O3)[C@@H](C)C(=O)O[C@H](CC)[C@@](C)(O)[C@H](O)[C@@H](C)C(=O)[C@H](C)C[C@@]2(C)O)O[C@H](C)C[C@@H]1N(C)C [ERYTHROMYCIN ETHYLSUCCINATE]")
83.2
>>> recorded_number("COC1=CC(=O)C[C@@H](C)[C@]12Oc1c(Cl)c(OC)cc(OC)c1C2=O [GRISEOFULVIN]")
73.2
>>> recorded_number("NC(N)=Nc1nc(CSCCC(N)=NS(N)(=O)=O)cs1 [FAMOTIDINE]")
82

* * *

- Species on record: Rattus norvegicus
- ASSAY_EXPLANATION: Open TG-GATES - Regimen: Daily Repeat
- Assay type: toxicity, organism-based, Sprague-Dawley
- Parameters: regimen Daily Repeat, gender Male, age 6 weeks
- CONDITION_SET: in vivo, po, 1000 mg/kg, 72 h, tissue Plasma, route gavage, dose level High, time 3 day
Attribute: TG
REPORTED_METRIC: TG (mg/dL)

>>> recorded_number("CCOC(=O)CCC(=O)O[C@H]1[C@H](O[C@@H]2[C@@H](C)[C@H](O[C@H]3C[C@@](C)(OC)[C@@H](O)[C@H](C)O3)[C@@H](C)C(=O)O[C@H](CC)[C@@](C)(O)[C@H](O)[C@@H](C)C(=O)[C@H](C)C[C@@]2(C)O)O[C@H](C)C[C@@H]1N(C)C [ERYTHROMYCIN ETHYLSUCCINATE]")
58.4
>>> recorded_number("NC(N)=Nc1nc(CSCCC(N)=NS(N)(=O)=O)cs1 [FAMOTIDINE]")
79.6
>>> recorded_number("CC(C)OC(=O)C(C)(C)Oc1ccc(C(=O)c2ccc(Cl)cc2)cc1 [FENOFIBRATE]")
33.6
>>> recorded_number("COC1=CC(=O)C[C@@H](C)[C@]12Oc1c(Cl)c(OC)cc(OC)c1C2=O [GRISEOFULVIN]")
45
>>> recorded_number("CCOc1ccc(NC(=O)CC(C)O)cc1 (stereo unspecified) [BUCETIN]")
102.2
>>> recorded_number("COc1ccc2[nH]c([S+]([O-])Cc3ncc(C)c(OC)c3C)nc2c1 (stereo unspecified) [OMEPRAZOLE]")
157.2

* * *

- Species on record: Rattus norvegicus
- ASSAY_EXPLANATION: Open TG-GATES - Regimen: Single
- Assay type: toxicity, organism-based, Sprague-Dawley
- Design: regimen Single, gender Male, age 6 weeks
- CONDITION_SET: in vivo, po, 300 mg/kg, 6 h, tissue Plasma, route gavage, dose level Middle
REPORTED_METRIC: CRE (mg/dL)

>>> recorded_number("NC(N)=Nc1nc(CSCCC(N)=NS(N)(=O)=O)cs1 [FAMOTIDINE]")
0.4
>>> recorded_number("COc1ccc2[nH]c([S+]([O-])Cc3ncc(C)c(OC)c3C)nc2c1 (centres undefined) [OMEPRAZOLE]")
0.4
>>> recorded_number("CCOC(=O)CCC(=O)O[C@H]1[C@H](O[C@@H]2[C@@H](C)[C@H](O[C@H]3C[C@@](C)(OC)[C@@H](O)[C@H](C)O3)[C@@H](C)C(=O)O[C@H](CC)[C@@](C)(O)[C@H](O)[C@@H](C)C(=O)[C@H](C)C[C@@]2(C)O)O[C@H](C)C[C@@H]1N(C)C [ERYTHROMYCIN ETHYLSUCCINATE]")
0.2
>>> recorded_number("COC1=CC(=O)C[C@@H](C)[C@]12Oc1c(Cl)c(OC)cc(OC)c1C2=O [GRISEOFULVIN]")
0.4

* * *

- Species on record: Rattus norvegicus
- ASSAY_EXPLANATION: Open TG-GATES - Regimen: Daily Repeat
- Type: toxicity, organism-based, Sprague-Dawley
- Set-up: regimen Daily Repeat, gender Male, age 6 weeks
- CONDITION_SET: in vivo, po, 100 mg/kg, […], tissue Plasma, route gavage, dose level Low, time 7 day
Attribute: DBIL
REPORTED_METRIC: DBIL (mg/dL)

>>> recorded_number("CCOC(=O)CCC(=O)O[C@H]1[C@H](O[C@@H]2[C@@H](C)[C@H](O[C@H]3C[C@@](C)(OC)[C@@H](O)[C@H](C)O3)[C@@H](C)C(=O)O[C@H](CC)[C@@](C)(O)[C@H](O)[C@@H](C)C(=O)[C@H](C)C[C@@]2(C)O)O[C@H](C)C[C@@H]1N(C)C [ERYTHROMYCIN ETHYLSUCCINATE]")
0
>>> recorded_number("COc1ccc2[nH]c([S+]([O-])Cc3ncc(C)c(OC)c3C)nc2c1 (stereo not given)")
0.066
>>> recorded_number("CCOc1ccc(NC(=O)CC(C)O)cc1 (stereo not given)")
0.022
>>> recorded_number("COC1=CC(=O)C[C@@H](C)[C@]12Oc1c(Cl)c(OC)cc(OC)c1C2=O")
0.08
>>> recorded_number("NC(N)=Nc1nc(CSCCC(N)=NS(N)(=O)=O)cs1")
0.098

This collection of values is drawn from ChEMBL document CHEMBL3885861.
